- Tested on: Bacillus subtilis
- Measurement notes: cleaved RNA product abundance (RNA/gDNA barcode ratio) relative to median wild-type variant (ratio to wild type); higher = more accumulation of the downstream cleavage product
- Cond: experiment (reporter, strain, medium): exp 4a: truncated aprE reporter, strain BJT201 with 2% xylose (RNase J1 expressed); cleavage site: cggR-gapA (positions -7 to +36 mutated)
Parameter measured: cleaved RNA product abundance

INSERT INTO measurements (residues, measurement) VALUES
  ('ACAGACGAAGGAGCCGCAAAGAAGTTATTAAGGTATGAATAATCCCTCAATCTAAATATCTCTCACTTATTTAAA', 0.0855),
  ('ACAGACGAAGGAGCCGCCAATAAGTTATTAAGGGATGAATAATCCCTCAATATAAATATCTCTCACTTATTTAAA', 0.812),
  ('ACAGACGAAGGAGCCGCAAAGAAGTTATTAAGGGATCAAAAATCCCTCAATATAAATATCTCTCACTTATTTAAA', 1.17),
  ('ACAGACGAAGGAGCCGCAAAGAAGTTATAAAGGGATGTATAATCCCTCAATATAAATATCTCTCACTTATTTAAA', 0.401),
  ('ACAGACGAAGGAGCCGCAAAGAAGTTATTAAGGGATGAATAATTCCTCAATATAAATGTCTCTCACTTATTTAAA', 0.564),
  ('ACAGACGAAGGAGCCGCAAAGAAGTTATTAAGGGATGAATAATCGCTCAATATAAATATCTCTCACTTATTTAAA', 0.12),
  ('ACAGACGAAGGAGCCGCAAAGAAGTTATTAAGGGATGAATAATCCCTCAATATAAATATGACTCACTTATTTAAA', 1),
  ('ACAGACGAAGGAGCCGCAAAGAAGTTATAAAGGGGTGAATAATCCCTCAATATAAATATCTCTCACTTATTTAAA', 0.422),
  ('ACAGACGAAGGAGCCGCAAAGAAGTTATTAAGGGATGAATAACCTCTCAATATAAATATCTCTCACTTATTTAAA', 0.151),
  ('ACAGACGAAGGAGCCGCAAACAAGTTATAAAGGGATGAATAATCCCTCAATATAAATATCTCTCACTTATTTAAA', 0.408),
  ('ACAGACGAAGGAGCCGCATAGAAGTTATTAAGGGATGAATAATCCCCCAATATAAATATCTCTCACTTATTTAAA', 0.319),
  ('ACAGACGAAGGAGCCGCAAAGAAGTTATTAAGGCATGAATAATCCCTCAATATAAATTTCTCTCACTTATTTAAA', 0.0847),
  ('ACAGACGAAGGAGCCGCAAATAAGTTATTAAGGGATGCATAATCCCTCAATATAAATATCTCTCACTTATTTAAA', 1.1),
  ('ACAGACGAAGGAGCCGCGAAGAAGTTATGAAGGGATGAATAATCCCTCAATATAAATATCTCTCACTTATTTAAA', 0.248),
  ('ACAGACGAAGGAGCCGCAAAGAAGTCATTAAGGGATGAATAATCCCTCAATATAAATATCTCTCACTTATTTAAA', 0.255),
  ('ACAGACGAAGGAGCCGCAAAGAAGTTATTATGGGATGAATAATCCCTCAATTTAAATATCTCTCACTTATTTAAA', 0.169),
  ('ACAGACGAAGGAGCCGCAAAGAACTTATTAAGGGATGAATAATCCCTCAATATAAATATCTCTCACTTATTTAAA', 0.509);
